- test_system: DNA-dependent protein kinase catalytic subunit (Homo sapiens, UniProt P78527)
- Sequence (P78527 whole entry): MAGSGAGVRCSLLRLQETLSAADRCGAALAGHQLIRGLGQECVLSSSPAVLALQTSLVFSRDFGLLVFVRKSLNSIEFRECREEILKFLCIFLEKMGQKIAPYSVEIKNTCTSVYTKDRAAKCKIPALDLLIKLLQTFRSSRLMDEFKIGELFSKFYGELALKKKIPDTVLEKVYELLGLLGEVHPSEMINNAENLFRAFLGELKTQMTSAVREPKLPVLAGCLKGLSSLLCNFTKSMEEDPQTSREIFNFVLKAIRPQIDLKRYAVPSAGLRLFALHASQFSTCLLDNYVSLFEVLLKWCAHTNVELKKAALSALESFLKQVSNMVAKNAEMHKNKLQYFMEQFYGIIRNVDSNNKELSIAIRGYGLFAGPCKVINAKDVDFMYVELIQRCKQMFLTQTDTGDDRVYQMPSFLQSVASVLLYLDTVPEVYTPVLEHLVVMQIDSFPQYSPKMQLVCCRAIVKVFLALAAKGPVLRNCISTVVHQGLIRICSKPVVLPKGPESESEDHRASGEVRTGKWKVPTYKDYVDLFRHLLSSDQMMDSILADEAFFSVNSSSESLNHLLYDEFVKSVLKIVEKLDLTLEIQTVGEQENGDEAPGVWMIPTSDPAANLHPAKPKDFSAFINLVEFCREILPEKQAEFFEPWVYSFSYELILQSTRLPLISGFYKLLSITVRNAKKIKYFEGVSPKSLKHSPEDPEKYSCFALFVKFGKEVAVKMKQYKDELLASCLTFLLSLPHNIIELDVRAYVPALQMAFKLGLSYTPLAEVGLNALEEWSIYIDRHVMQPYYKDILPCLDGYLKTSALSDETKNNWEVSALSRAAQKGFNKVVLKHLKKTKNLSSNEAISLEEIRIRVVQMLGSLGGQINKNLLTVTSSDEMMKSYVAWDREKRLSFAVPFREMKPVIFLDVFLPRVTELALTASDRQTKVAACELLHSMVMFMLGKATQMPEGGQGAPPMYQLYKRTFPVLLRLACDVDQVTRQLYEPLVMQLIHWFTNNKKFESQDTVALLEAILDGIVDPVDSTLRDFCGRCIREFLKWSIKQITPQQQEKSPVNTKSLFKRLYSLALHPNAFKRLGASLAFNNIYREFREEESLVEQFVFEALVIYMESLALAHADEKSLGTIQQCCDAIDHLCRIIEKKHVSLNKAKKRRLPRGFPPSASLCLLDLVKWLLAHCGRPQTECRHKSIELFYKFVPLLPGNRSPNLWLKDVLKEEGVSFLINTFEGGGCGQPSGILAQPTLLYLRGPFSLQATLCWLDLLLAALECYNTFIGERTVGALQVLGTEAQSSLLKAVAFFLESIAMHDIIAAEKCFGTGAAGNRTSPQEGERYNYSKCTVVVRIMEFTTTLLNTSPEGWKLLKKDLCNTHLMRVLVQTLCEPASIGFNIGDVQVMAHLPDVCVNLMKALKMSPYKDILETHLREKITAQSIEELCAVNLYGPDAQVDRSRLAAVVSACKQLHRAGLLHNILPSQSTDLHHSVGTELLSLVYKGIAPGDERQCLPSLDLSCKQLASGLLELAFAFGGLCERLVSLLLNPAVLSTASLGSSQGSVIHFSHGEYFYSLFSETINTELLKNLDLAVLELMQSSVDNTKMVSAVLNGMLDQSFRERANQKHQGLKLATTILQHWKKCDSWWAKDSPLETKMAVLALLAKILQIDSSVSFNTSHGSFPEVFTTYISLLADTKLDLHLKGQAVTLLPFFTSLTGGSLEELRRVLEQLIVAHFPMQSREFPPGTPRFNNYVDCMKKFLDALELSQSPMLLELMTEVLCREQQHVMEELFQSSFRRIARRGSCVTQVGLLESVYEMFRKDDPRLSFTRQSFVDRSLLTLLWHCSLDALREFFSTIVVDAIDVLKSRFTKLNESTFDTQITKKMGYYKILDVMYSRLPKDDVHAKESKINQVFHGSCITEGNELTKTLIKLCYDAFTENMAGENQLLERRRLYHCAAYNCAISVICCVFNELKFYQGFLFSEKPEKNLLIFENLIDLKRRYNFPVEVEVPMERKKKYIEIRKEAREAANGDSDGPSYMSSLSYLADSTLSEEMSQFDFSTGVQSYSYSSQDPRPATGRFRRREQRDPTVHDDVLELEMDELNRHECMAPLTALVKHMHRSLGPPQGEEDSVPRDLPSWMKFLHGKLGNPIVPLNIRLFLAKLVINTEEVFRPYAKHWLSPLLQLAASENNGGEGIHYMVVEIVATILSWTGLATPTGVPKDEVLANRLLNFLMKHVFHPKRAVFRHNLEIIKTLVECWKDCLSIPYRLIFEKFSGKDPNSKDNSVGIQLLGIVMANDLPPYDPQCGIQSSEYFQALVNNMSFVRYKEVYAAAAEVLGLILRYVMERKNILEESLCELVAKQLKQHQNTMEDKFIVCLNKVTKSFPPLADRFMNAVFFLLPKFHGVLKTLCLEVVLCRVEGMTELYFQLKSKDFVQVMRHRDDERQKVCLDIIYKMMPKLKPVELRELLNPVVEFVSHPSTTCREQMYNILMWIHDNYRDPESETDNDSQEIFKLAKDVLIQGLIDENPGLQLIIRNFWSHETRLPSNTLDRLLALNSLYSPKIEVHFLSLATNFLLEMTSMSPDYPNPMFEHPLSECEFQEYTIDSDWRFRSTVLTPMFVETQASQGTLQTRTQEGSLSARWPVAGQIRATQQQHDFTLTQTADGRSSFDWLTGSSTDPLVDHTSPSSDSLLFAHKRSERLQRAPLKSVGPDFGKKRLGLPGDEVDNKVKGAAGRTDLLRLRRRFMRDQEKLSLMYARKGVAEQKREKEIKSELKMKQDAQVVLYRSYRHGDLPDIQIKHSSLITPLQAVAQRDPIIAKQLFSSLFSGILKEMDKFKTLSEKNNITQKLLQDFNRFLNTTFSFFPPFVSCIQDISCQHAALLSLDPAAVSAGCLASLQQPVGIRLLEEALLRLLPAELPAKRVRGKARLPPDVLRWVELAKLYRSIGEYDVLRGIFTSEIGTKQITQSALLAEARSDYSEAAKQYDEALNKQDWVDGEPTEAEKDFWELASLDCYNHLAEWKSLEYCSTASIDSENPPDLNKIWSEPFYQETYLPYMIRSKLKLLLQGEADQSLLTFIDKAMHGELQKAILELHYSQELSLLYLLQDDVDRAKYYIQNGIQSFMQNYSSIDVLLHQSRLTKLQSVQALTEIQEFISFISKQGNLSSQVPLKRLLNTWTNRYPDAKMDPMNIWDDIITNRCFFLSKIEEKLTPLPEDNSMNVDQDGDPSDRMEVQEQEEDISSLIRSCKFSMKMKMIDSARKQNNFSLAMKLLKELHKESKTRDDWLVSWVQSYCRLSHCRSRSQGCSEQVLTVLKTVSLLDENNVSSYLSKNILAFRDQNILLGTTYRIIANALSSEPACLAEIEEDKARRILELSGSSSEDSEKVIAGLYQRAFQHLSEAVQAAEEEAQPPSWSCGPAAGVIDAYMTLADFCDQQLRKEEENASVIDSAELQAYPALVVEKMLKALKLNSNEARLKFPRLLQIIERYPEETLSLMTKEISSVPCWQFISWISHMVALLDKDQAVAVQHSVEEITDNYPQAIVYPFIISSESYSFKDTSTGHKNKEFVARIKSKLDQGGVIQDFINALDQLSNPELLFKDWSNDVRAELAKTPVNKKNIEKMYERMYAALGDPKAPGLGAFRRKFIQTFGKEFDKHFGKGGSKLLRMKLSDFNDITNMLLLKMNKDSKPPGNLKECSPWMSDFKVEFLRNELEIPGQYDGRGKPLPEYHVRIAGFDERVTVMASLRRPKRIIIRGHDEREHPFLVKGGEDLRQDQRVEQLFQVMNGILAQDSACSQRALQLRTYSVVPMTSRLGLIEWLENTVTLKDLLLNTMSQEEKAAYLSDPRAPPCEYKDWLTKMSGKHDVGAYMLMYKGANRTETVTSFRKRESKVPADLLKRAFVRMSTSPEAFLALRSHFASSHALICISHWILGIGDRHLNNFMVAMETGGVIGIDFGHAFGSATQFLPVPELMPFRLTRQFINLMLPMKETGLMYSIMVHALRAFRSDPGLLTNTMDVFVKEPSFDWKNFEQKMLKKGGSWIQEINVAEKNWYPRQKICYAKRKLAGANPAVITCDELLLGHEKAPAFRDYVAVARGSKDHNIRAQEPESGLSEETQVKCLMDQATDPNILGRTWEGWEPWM
- test_summary: Inhibition of DNAPK (unknown origin) using p53-based peptide substrate preincubated for 5 min prior to ATP addition
endpoint: pIC50
By convention, pIC50 is the negative base-10 log of a molar concentration.

What value of pIC50 has been recorded for this entry: `COc1cc2ncnc(-n3nc(-c4ccccn4)nc3N)c2cc1OC`
6.06

What value of pIC50 has been recorded for this entry: `C[C@@H](Nc1c(C(N)=O)cnc2ccc(-c3cccnc3)cc12)c1ccc(Cl)cc1`
8.30

What value of pIC50 has been recorded for this entry: `C[C@@H](Nc1c(C(N)=O)cnc2ccc(C#N)cc12)c1ccc(Cl)cc1`
6.96

What value of pIC50 has been recorded for this entry: `COCc1ccc(-c2cc3c(N[C@@H](C)c4ccn(C)n4)c(C(N)=O)cnc3cc2F)cn1`
6.43

What value of pIC50 has been recorded for this entry: `CCC(CC)CNc1c(C(N)=O)cnc2ccc(C#N)cc12`
7.01

This collection of values is drawn from ChEMBL document CHEMBL4477207.
